Biological target: Protein farnesyltransferase (Homo sapiens, UniProt P49354+P49356)
Test: Inhibition of human FTase
Type: protein-complex assay
quantity.name: pIC50
Units for pIC50: none; it is -log10 of a concentration expressed in mol/L.

Lab note: need pIC50 for "O=C(CCn1c2ccccc2c2ccccc21)OCCS" on Protein farnesyltransferase (Homo sapiens, UniProt P49354+P49356), anyone have it?
4.46

Attribution: ChEMBL document CHEMBL3621163
